molecular target: T1, human MSLN-hFc protein (Acro, Cat. No. MSN-H5253) (human, UniProt Q13421 296-580); assay: ELISA on coated antigen, antibody 0.001 nM
T1 construct: the method names the coated protein as human MSLN-hFc (Acro); also called human MSLN full-length protein
T1 sequence (Q13421 other isoform, or with tags, fused parts or gaps limits assumed): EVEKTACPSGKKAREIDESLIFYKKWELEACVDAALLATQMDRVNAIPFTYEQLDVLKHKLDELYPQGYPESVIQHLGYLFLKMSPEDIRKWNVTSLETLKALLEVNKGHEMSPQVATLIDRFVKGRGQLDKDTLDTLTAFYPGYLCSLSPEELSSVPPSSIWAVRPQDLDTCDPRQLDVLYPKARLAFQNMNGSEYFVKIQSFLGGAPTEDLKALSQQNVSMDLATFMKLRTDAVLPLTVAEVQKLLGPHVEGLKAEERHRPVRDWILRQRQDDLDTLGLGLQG
The reader will find reported OD450 values listed item by item below.
Answer format: numeric, OD450 implied, no suffix.

Worked cases, OD450 given:
[
  {
    "binder": "F7.44.20-H9 (scFv, not shown: small tags and cut ends, also called S009-F7.44.20 humanized antibody VH2 + VL1) scFv: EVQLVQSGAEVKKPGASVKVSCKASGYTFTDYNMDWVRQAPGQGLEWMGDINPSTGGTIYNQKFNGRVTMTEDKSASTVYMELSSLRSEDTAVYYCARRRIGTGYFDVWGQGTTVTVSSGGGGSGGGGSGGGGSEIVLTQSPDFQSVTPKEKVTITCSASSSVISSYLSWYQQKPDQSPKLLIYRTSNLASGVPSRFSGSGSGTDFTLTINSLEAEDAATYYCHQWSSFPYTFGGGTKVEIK",
    "OD450, OD450": 0.05
  },
  {
    "binder": "F7.44.20 (scFv, not shown: small tags and cut ends, also called S009-F7.44.20 (parental variable regions, in the humanized-antibody ELISA)) scFv: EVQLQQSGPELVKPGASVKIPCKASGYTFTDYNMDWVKQSHGKSLEWIGDINPSTGGTIYNQKFNGKATLTEDKSASTVYMEFRSLTSDDTAVYYCARRRIGTGYFDVWGTGTTVTVSSGGGGSGGGGSGGGGSQIVLTQSPALMSASPGEKVTLTCSASSSVISSYLSWYQQKPGSSPKLLIYRTSNLASGVPARFSGSGSGTSYSLTISSMEAEDAASYFCHQWSSFPYTFGGGTKLEIK",
    "OD450, OD450": 0.17
  },
  {
    "binder": "F7.44.20-H14 (scFv, not shown: small tags and cut ends, also called S009-F7.44.20 humanized antibody VH2a + VL2) scFv: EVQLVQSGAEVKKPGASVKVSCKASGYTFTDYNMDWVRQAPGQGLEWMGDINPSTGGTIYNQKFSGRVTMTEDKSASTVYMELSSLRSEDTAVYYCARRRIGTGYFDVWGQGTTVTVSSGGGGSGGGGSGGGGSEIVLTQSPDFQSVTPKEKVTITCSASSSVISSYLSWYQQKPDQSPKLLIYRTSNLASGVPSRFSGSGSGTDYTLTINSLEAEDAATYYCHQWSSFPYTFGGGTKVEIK",
    "OD450, OD450": 0.05
  },
  {
    "binder": "F7.44.20-H4 (scFv, not shown: small tags and cut ends, also called S009-F7.44.20 humanized antibody VH1 + VL4) scFv: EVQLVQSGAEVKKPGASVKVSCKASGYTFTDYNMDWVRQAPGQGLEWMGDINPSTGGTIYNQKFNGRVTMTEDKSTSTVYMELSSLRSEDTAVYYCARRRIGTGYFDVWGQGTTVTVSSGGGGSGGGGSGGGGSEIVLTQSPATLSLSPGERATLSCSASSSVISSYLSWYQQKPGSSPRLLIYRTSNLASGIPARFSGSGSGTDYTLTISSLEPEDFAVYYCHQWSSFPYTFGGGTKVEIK",
    "OD450, OD450": 0.04
  },
  {
    "binder": "F7.44.20-VL-VH (scFv, not shown: small tags and cut ends, also called S009-F7.44.20 parental variable regions, VL-VH order) scFv: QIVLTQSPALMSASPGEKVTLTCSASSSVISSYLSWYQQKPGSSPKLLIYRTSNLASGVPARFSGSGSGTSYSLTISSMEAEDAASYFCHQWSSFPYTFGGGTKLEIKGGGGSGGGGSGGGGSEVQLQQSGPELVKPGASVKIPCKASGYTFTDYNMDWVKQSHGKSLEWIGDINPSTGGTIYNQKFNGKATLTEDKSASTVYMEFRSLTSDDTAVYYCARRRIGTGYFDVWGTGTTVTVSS",
    "OD450, OD450": 0.2
  }
]

Data request: Annotate the binder F7.44.20-H12 (scFv, not shown: small tags and cut ends, also called S009-F7.44.20 humanized antibody VH2 + VL4) scFv: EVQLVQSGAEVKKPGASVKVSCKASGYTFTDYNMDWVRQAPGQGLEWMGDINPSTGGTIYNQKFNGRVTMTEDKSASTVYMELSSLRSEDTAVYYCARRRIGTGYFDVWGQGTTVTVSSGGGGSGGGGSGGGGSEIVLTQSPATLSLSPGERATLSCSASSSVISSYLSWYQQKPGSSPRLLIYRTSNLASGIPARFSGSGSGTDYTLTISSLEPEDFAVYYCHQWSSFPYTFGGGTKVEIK with its measured OD450.
Data returned: 0.05

Entry source: patent US20250250357A1
